System: SK-LU-1
testSummary: relative viability (nuclei count vs DMSO), 5 days (fraction); higher = more cells survive
protocolConditions: first compound 0.005 µM
Label key: criterion met means relative viability under 0.6; criterion not met means relative viability of 0.6 or more.

As a guide, the following entries are already answered.
{"compound": "COc1cc2nccc(Oc3ccc(NC(=O)Nc4cc(C)on4)c(Cl)c3)c2cc1OC [Tivozanib] + Nc1ncn([C@H]2C[C@H](O)[C@@H](CO)O2)c(=O)n1 [Decitabine] (partner 2 µM)", "category": "criterion not met"}
{"compound": "Nc1ccn([C@@H]2O[C@H](CO)[C@@H](O)[C@@H]2O)c(=O)n1 [Cytarabine] + Cc1cc(Nc2cc(N3CCN(C)CC3)nc(Sc3ccc(NC(=O)C4CC4)cc3)n2)n[nH]1 [Tozasertib] (partner 0.1 µM)", "category": "criterion met"}
{"compound": "Nc1ccn([C@@H]2O[C@H](CO)[C@@H](O)[C@@H]2O)c(=O)n1 [Cytarabine] + CS(=O)(=O)N1CCN(Cc2cc3nc(-c4cccc5[nH]ncc45)nc(N4CCOCC4)c3s2)CC1 [Pictilisib] (partner 1 µM)", "category": "criterion met"}
{"compound": "Nc1ccn([C@@H]2O[C@H](CO)[C@@H](O)[C@@H]2O)c(=O)n1 [Cytarabine] + C[C@@H](Oc1cc(-c2cnn(C3CCNCC3)c2)cnc1N)c1c(Cl)ccc(F)c1Cl [Crizotinib] (partner 1 µM)", "category": "criterion not met"}

Please turn your attention to the following entry.
Input: Please state whether relative viability is below 0.6 for COc1cc2nccc(Oc3ccc(NC(=O)Nc4cc(C)on4)c(Cl)c3)c2cc1OC [Tivozanib] + Cc1nc(NC(=O)N2CCC[C@H]2C(N)=O)sc1-c1ccnc(C(C)(C)C(F)(F)F)c1 [Alpelisib] (partner 2 µM)
Output: criterion not met

* * *

System: SW 1573
testSummary: relative viability (nuclei count vs DMSO), 5 days (fraction); higher = more cells survive
protocolConditions: first compound 0.006325 µM
The label is T for relative viability below 0.2 and F for relative viability equal to or exceeding 0.2.

Input: Just wondering, is relative viability of CC(=O)O[C@@]12CO[C@@H]1C[C@H](O)[C@@]1(C)C(=O)[C@H](O)C3=C(C)[C@@H](OC(=O)[C@H](O)[C@@H](NC(=O)OC(C)(C)C)c4ccccc4)C[C@@](O)([C@@H](OC(=O)c4ccccc4)[C@H]21)C3(C)C [Docetaxel] + O=C(CCCCCCC(=O)Nc1ccccc1)NO [Vorinostat] (partner 1 µM) below 0.2?
Output: T

Input: # strict comparison: is reported relative viability < 0.2? input = CC(=O)O[C@@]12CO[C@@H]1C[C@H](O)[C@@]1(C)C(=O)[C@H](O)C3=C(C)[C@@H](OC(=O)[C@H](O)[C@@H](NC(=O)OC(C)(C)C)c4ccccc4)C[C@@](O)([C@@H](OC(=O)c4ccccc4)[C@H]21)C3(C)C [Docetaxel] + Nc1ncn([C@H]2C[C@H](O)[C@@H](CO)O2)c(=O)n1 [Decitabine] (partner 2 µM)
Output: T

Input: Lab log: compare recorded relative viability with 0.2; is it strictly lower for CC(=O)O[C@@]12CO[C@@H]1C[C@H](O)[C@@]1(C)C(=O)[C@H](O)C3=C(C)[C@@H](OC(=O)[C@H](O)[C@@H](NC(=O)OC(C)(C)C)c4ccccc4)C[C@@](O)([C@@H](OC(=O)c4ccccc4)[C@H]21)C3(C)C [Docetaxel] + CC1(C)CCC(c2ccc(Cl)cc2)=C(CN2CCN(c3ccc(C(=O)NS(=O)(=O)c4ccc(N[C@H](CCN5CCOCC5)CSc5ccccc5)c(S(=O)(=O)C(F)(F)F)c4)cc3)CC2)C1 [Navitoclax] (partner 0.5 µM) ?
Output: T

Input: relative viability strictly < 0.2 for this compound? CC(=O)O[C@@]12CO[C@@H]1C[C@H](O)[C@@]1(C)C(=O)[C@H](O)C3=C(C)[C@@H](OC(=O)[C@H](O)[C@@H](NC(=O)OC(C)(C)C)c4ccccc4)C[C@@](O)([C@@H](OC(=O)c4ccccc4)[C@H]21)C3(C)C [Docetaxel] + CS(=O)(=O)N1CCN(Cc2cc3nc(-c4cccc5[nH]ncc45)nc(N4CCOCC4)c3s2)CC1 [Pictilisib] (partner 1 µM)
Output: T

Input: Check if relative viability falls below 0.2 for CC(=O)O[C@@]12CO[C@@H]1C[C@H](O)[C@@]1(C)C(=O)[C@H](O)C3=C(C)[C@@H](OC(=O)[C@H](O)[C@@H](NC(=O)OC(C)(C)C)c4ccccc4)C[C@@](O)([C@@H](OC(=O)c4ccccc4)[C@H]21)C3(C)C [Docetaxel] + C[C@]1(O)C[C@@H](c2nc(-c3ccc4ccc(-c5ccccc5)nc4c3)c3c(N)nccn32)C1 [Linsitinib] (partner 1 µM) .
Output: F

Input: Dear reviewer, please state whether CC(=O)O[C@@]12CO[C@@H]1C[C@H](O)[C@@]1(C)C(=O)[C@H](O)C3=C(C)[C@@H](OC(=O)[C@H](O)[C@@H](NC(=O)OC(C)(C)C)c4ccccc4)C[C@@](O)([C@@H](OC(=O)c4ccccc4)[C@H]21)C3(C)C [Docetaxel] + Nc1nc2[nH]cc(CCc3ccc(C(=O)N[C@@H](CCC(=O)O)C(=O)O)cc3)c2c(=O)[nH]1 [Pemetrexed] (partner 0.2 µM) has relative viability strictly beneath 0.2.
Output: T

* * *

System: NCI-H1648
testSummary: relative viability (nuclei count vs DMSO), 5 days (fraction); higher = more cells survive
protocolConditions: first compound 0.04 µM
Please go through the items and note down their relative viability.
Give bare numbers.

{"compound": "Cc1sc2c(c1C)C(c1ccc(Cl)cc1)=N[C@@H](CC(=O)OC(C)(C)C)c1nnc(C)n1-2 [JQ1] + CC(=O)Nc1cccc(-n2c(=O)n(C3CC3)c(=O)c3c(Nc4ccc(I)cc4F)n(C)c(=O)c(C)c32)c1 [Trametinib] (partner 0.02 µM)", "targetDesc": "NCI-H1648", "relative viability": 0.432}

Next item in the queue.
compound Cc1sc2c(c1C)C(c1ccc(Cl)cc1)=N[C@@H](CC(=O)OC(C)(C)C)c1nnc(C)n1-2 [JQ1] + NC(=O)Nc1cc(-c2cccc(F)c2)sc1C(=O)N[C@H]1CCCNC1 [AZD7762] (partner 0.2 µM) , relative viability observed: 0.862

* * *

Can you tell me relative viability for the items I'm about to list?
Test system: EPLC-272H
testSummary: relative viability (nuclei count vs DMSO), 5 days (fraction); higher = more cells survive
protocolConditions: first compound 0.8 µM

// solved cases for relative viability follow
{"compound": "Cc1cnc(-c2cnc(NCCNc3ccc(C#N)cn3)nc2-c2ccc(Cl)cc2Cl)[nH]1 + O=C(c1cc(Cc2n[nH]c(=O)c3ccccc23)ccc1F)N1CCN(C(=O)C2CC2)CC1 [Olaparib] (partner 8 µM)", "observedMeasurement": 0.739}
{"compound": "O=c1[nH]c2ccccc2n1C1CCN(CCCC(c2ccc(F)cc2)c2ccc(F)cc2)CC1 [Pimozide] + N=C(N)NC(=N)NCCc1ccccc1 [Phenformin] (partner 250 µM)", "observedMeasurement": 0.342}
{"compound": "Cc1cnc(-c2cnc(NCCNc3ccc(C#N)cn3)nc2-c2ccc(Cl)cc2Cl)[nH]1 + Nc1ncn([C@H]2C[C@H](O)[C@@H](CO)O2)c(=O)n1 [Decitabine] (partner 2 µM)", "observedMeasurement": 0.352}
{"compound": "Cc1cnc(-c2cnc(NCCNc3ccc(C#N)cn3)nc2-c2ccc(Cl)cc2Cl)[nH]1 + C[C@]1(O)C[C@@H](c2nc(-c3ccc4ccc(-c5ccccc5)nc4c3)c3c(N)nccn32)C1 [Linsitinib] (partner 1 µM)", "observedMeasurement": 1.27}

Go through the list and state relative viability for each entry.
1. O=c1[nH]c2ccccc2n1C1CCN(CCCC(c2ccc(F)cc2)c2ccc(F)cc2)CC1 [Pimozide] + COc1cccc2cc(-c3nc([C@H]4CC[C@H](C(=O)O)CC4)n4ncnc(N)c34)[nH]c12 [OSI-027] (partner 0.5 µM)
2. O=c1[nH]c2ccccc2n1C1CCN(CCCC(c2ccc(F)cc2)c2ccc(F)cc2)CC1 [Pimozide] + CC(C)C[C@H](NC(=O)[C@H](Cc1ccccc1)NC(=O)c1cnccn1)B(O)O [Bortezomib] (partner 0.002 µM)
3. O=c1[nH]c2ccccc2n1C1CCN(CCCC(c2ccc(F)cc2)c2ccc(F)cc2)CC1 [Pimozide] + Cc1nc(NC(=O)N2CCC[C@H]2C(N)=O)sc1-c1ccnc(C(C)(C)C(F)(F)F)c1 [Alpelisib] (partner 2 µM)

Output:
0.25
0.826
0.894

* * *

Test system: BEN
testSummary: relative viability (nuclei count vs DMSO), 5 days (fraction); higher = more cells survive
protocolConditions: first compound 50 µM
experimentalReadout: relative viability
Answers are plain numbers.

I'm hoping you can list relative viability for every compound here, please.
1. O=C(O)CCCCC(CCSCc1ccccc1)SCc1ccccc1 (stereo not given) [CPI-613] + NC(=O)Nc1cc(-c2cccc(F)c2)sc1C(=O)N[C@H]1CCCNC1 [AZD7762] (partner 0.2 µM)
2. O=C(O)CCCCC(CCSCc1ccccc1)SCc1ccccc1 (stereo not given) [CPI-613] + Nc1nc2[nH]cc(CCc3ccc(C(=O)N[C@@H](CCC(=O)O)C(=O)O)cc3)c2c(=O)[nH]1 [Pemetrexed] (partner 0.2 µM)
3. O=C(O)CCCCC(CCSCc1ccccc1)SCc1ccccc1 (stereo not given) [CPI-613] + N=C(N)NC(=N)NCCc1ccccc1 [Phenformin] (partner 250 µM)
4. O=C(O)CCCCC(CCSCc1ccccc1)SCc1ccccc1 (stereo not given) [CPI-613] + COc1cccc2cc(-c3nc([C@H]4CC[C@H](C(=O)O)CC4)n4ncnc(N)c34)[nH]c12 [OSI-027] (partner 0.5 µM)

Output:
1. 0.697
2. 0.763
3. 0.255
4. 0.304

The value of relative viability measured for the compound O=C(O)CCCCC(CCSCc1ccccc1)SCc1ccccc1 (stereo not given) [CPI-613] + C[C@@H](Oc1cc(-c2cnn(C3CCNCC3)c2)cnc1N)c1c(Cl)ccc(F)c1Cl [Crizotinib] (partner 1 µM) turned out to be 0.807

All values here come from the supplement of paper PMC10307832.
